Test system: 598228-144-R-J1-PDC complex spheroids, viability;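 further: spheroids exposed to compounds for seven days before readout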
experimental-protocol: Anticancer human tumor 598228-144-R-J1-PDC patient-derived serous endometrial adenocarcinoma cell line growth inhibition [CLK]; active means viability on the fitted dose curve at most 10% of control; inactive means the rest
cond: second compound 0.0316 µM; first compound 1 µM
Description: A high-throughput screen of multi-cell type tumor spheroids was designed to identify active combinations of […] and targeted small molecules. Complex spheroids include a stromal component modeled by human endothelial cells (HUVEC) and fibroblasts modeled by human mesenchymal stem cells (MSCs). […] Compounds. […] If the clinical Cmax for an agent had not been determined, the highest concentration tested was 10 microM. […]
Classes to choose from: active, inactive

Some entries whose results are on file:
- compound: "CCc1c2c(nc3ccc(O)cc13)-c1cc3c(c(=O)n1C2)COC(=O)[C@]3(O)CC + CNC(=O)c1ccc(Nc2nc(OC3CCCC3)c3c(-c4ccc5nc(C)oc5c4)c[nH]c3n2)c(OC)c1"
  group: "active"
- compound: "C=C(F)C(=O)N1CCN(c2nc(OCC3CCCN3C)nc3c2CCN(c2cccc4cccc(Cl)c24)C3)CC1CC#N (stereo not drawn) + CN1CCN(c2cc(C(=O)Nc3cc4cc(-c5cnn(C)c5)ccc4cn3)ccn2)CC1"
  group: "inactive"
- compound: "COc1ccc([C@@H](O)c2cc(-c3ncnc4cc(N5CCOCC5)ccc34)c(F)cc2Cl)nn1 + CN1CCN(c2cc(C(=O)Nc3cc4cc(-c5cnn(C)c5)ccc4cn3)ccn2)CC1"
  group: "inactive"

**Query** Record request — test call for O=C(c1cc(Cc2n[nH]c(=O)c3ccccc23)ccc1F)N1CCN(C(=O)C2CC2)CC1 + CNC(=O)c1ccc(Nc2nc(OC3CCCC3)c3c(-c4ccc5nc(C)oc5c4)c[nH]c3n2)c(OC)c1
**Result** inactive

**Query** Record request — test call for Nc1ccn(C2OC(CO)C(O)C2(F)F)c(=O)n1 (stereo not drawn) + CNC(=O)c1ccc(Nc2nc(OC3CCCC3)c3c(-c4ccc5nc(C)oc5c4)c[nH]c3n2)c(OC)c1
**Result** inactive

**Query** Record request — test call for COc1ccc([C@@H](O)c2cc(-c3ncnc4cc(N5CCOCC5)ccc34)c(F)cc2Cl)nn1 + CNC(=O)c1ccc(Nc2nc(OC3CCCC3)c3c(-c4ccc5nc(C)oc5c4)c[nH]c3n2)c(OC)c1
**Result** inactive

**Query** Record request — test call for COc1c(OCCCN2CCOCC2)ccc2c3n(c(=NC(=O)c4cnc(N)nc4)nc12)CCN3 + CN1CCN(c2cc(C(=O)Nc3cc4cc(-c5cnn(C)c5)ccc4cn3)ccn2)CC1
**Result** active

**Query** Record request — test call for CCc1c2c(nc3ccc(O)cc13)-c1cc3c(c(=O)n1C2)COC(=O)[C@]3(O)CC + CN1CCN(c2cc(C(=O)Nc3cc4cc(-c5cnn(C)c5)ccc4cn3)ccn2)CC1
**Result** inactive

**Query** Record request — test call for CCCS(=O)(=O)Nc1ccc(F)c(C(=O)c2c[nH]c3ncc(-c4ccc(Cl)cc4)cc23)c1F + CN1CCN(c2cc(C(=O)Nc3cc4cc(-c5cnn(C)c5)ccc4cn3)ccn2)CC1
**Result** inactive

**Query** Record request — test call for CC1COCCN1c1cc(C2(S(C)(=N)=O)CC2)nc(-c2ccnc3[nH]ccc23)n1 (stereo not drawn) + CNC(=O)c1ccc(Nc2nc(OC3CCCC3)c3c(-c4ccc5nc(C)oc5c4)c[nH]c3n2)c(OC)c1
**Result** inactive

**Query** Record request — test call for CCCS(=O)(=O)Nc1ccc(F)c(C(=O)c2c[nH]c3ncc(-c4ccc(Cl)cc4)cc23)c1F + CNC(=O)c1ccc(Nc2nc(OC3CCCC3)c3c(-c4ccc5nc(C)oc5c4)c[nH]c3n2)c(OC)c1
**Result** inactive

**Query** Record request — test call for CC1(C)CCC(CN2CCN(c3ccc(C(=O)NS(=O)(=O)c4ccc(NCC5CCOCC5)c([N+](=O)[O-])c4)c(Oc4cnc5[nH]ccc5c4)c3)CC2)=C(c2ccc(Cl)cc2)C1 + CN1CCN(c2cc(C(=O)Nc3cc4cc(-c5cnn(C)c5)ccc4cn3)ccn2)CC1
**Result** inactive

**Query** Record request — test call for CC1COCCN1c1cc(C2(S(C)(=N)=O)CC2)nc(-c2ccnc3[nH]ccc23)n1 (stereo not drawn) + CN1CCN(c2cc(C(=O)Nc3cc4cc(-c5cnn(C)c5)ccc4cn3)ccn2)CC1
**Result** inactive
